system: SW-620 colon; experiment: NCI-60 one-dose screen, 48 h (100 = growth as untreated, 0 = no growth, -100 = all killed); details: 10 µM unless noted
The panel holds about 83,000 compounds, 20% with a hit somewhere; the sample as a whole holds those more often.
Each entry gets Criterion not met if its growth stays under 90%, and Criterion met if its growth is 90% or above.

Does growth meet or surpass 90% for `COc1ccc2c(O)c(/C=C3\N=Nc4ncccc43)oc2c1C[C@@H]1CCNC[C@H]1F` ?
Criterion not met

Does growth meet or surpass 90% for `COc1cc(Cc2cc(-c3ccccc3)nn(Cc3ccccc3)c2=O)cc(OC)c1OC` ?
Criterion not met

Does growth meet or surpass 90% for `COc1cc(C=C2C(=O)NC(=S)NC2=O)cc(CN2CCCC2)c1O` ?
Criterion met

Does growth meet or surpass 90% for `C=CCN=c1sc(-c2ccc3ccccc3c2)cn1NC(=O)c1cc2ccc1CCc1ccc(cc1)CC2` ?
Criterion not met

Does growth meet or surpass 90% for `Clc1ccc(Nc2ncc(Cc3cccc(Cl)c3Cl)s2)cc1` ?
Criterion met

Does growth meet or surpass 90% for `CCOC(=O)NCCCC(=O)NCCc1ccccc1` ?
Criterion met

Does growth meet or surpass 90% for `CN(C)C1CN(C(=O)c2cc(-c3ccc4ncnc(N5CCc6cc(F)c(Cl)cc65)c4c3)cnc2N)C1` ?
Criterion not met

Does growth meet or surpass 90% for `CCN1CCN(CCNc2nccc(-c3c(-c4ccc(F)c(O)c4)nc4occn34)n2)S1(=O)=O` ?
Criterion not met

Does growth meet or surpass 90% for CC(=O)N1N=C(c2ccc(Nc3nc(Nc4ccc(F)cc4)nc(Nc4ccc(F)cc4)n3)cc2)CC1c1ccc(N(C)C)cc1 (stereo not given) ?
Criterion not met

Does growth meet or surpass 90% for `O=C(C[C@]1(O)C(=O)Nc2ccc(Br)cc21)c1ccco1` ?
Criterion met

Does growth meet or surpass 90% for `O=S(=O)(Nc1cc(Sc2nc3ccccc3s2)c(O)c2ccccc12)c1ccc2ccccc2c1` ?
Criterion met

Does growth meet or surpass 90% for CCCCC#Cc1c(I)n(C2OC(CO[Si](C)(C)C(C)(C)C)C3OC(C)(C)OC32)c(=O)n(C(=O)c2ccccc2)c1=O (stereo not given) ?
Criterion not met

Does growth meet or surpass 90% for `COc1cc(Cc2cc(OC)c(O)c(OC)c2)cc(OC)c1O` ?
Criterion not met

Does growth meet or surpass 90% for `Cc1c(O)cc(-c2cnc(N/N=C/c3ccccc3)s2)c(O)c1C` ?
Criterion met

Does growth meet or surpass 90% for `CNC(=O)c1cc(Oc2ccc3c(c2)sc2nc(-c4cc(C(F)(F)F)cc(C(F)(F)F)c4)cn23)ccn1` ?
Criterion not met

Does growth meet or surpass 90% for O=CN1N=C(c2cccc(Nc3ccnc4cc(Cl)ccc34)c2)CC1c1ccc(Cl)cc1 (stereo not given) ?
Criterion not met

Does growth meet or surpass 90% for `CSc1nc2ccc(C)cc2cc1/C=C1/C=C(c2ccccc2)NC1=O` ?
Criterion not met

Does growth meet or surpass 90% for `Oc1c(I)cc(I)cc1CN(Cc1ccccn1)Cc1ccccn1` ?
Criterion not met

Does growth meet or surpass 90% for `Cc1nc2sc(C(=O)Nc3cccc4ccccc34)c(N)c2cc1C(=O)c1ccccc1` ?
Criterion not met
